experimental-system: T1, ZFP SBS#748 (synthetic)
T1 chain: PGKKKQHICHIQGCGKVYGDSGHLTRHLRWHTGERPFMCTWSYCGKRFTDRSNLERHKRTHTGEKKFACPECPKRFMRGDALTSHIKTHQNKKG
assay-text: EMSA
study-conditions: tags: MBP fusion

{"columns": ["binder", "Kd / nM"],
 "data": [
  ["TTGGACGGCG (dsDNA) DNA 1: TTGGACGGCG DNA 2: CGCCGTCCAA", 112]
]}
